tested on: SEM cells; assay: cell viability relative to DMSO control; higher = less cytotoxic; settings: HPLM + 10% dialyzed FBS; 48 h; 15.4 µM
endpoint: cell viability (%)

{"compound": "CN(C)c1nc(Cc2ccc(NC(=O)c3ccc(C(F)(F)F)cc3)cc2)nc(N(C)C)c1CC(=O)O", "endpoint": "cell viability", "recordedNumber": 116}
{"compound": "CCc1ccc(OCc2ccccc2C(=O)Nc2ccc3nc(C)cc(N)c3c2)cc1", "endpoint": "cell viability", "recordedNumber": 11.3}
{"compound": "COc1c(Cl)cc2c([nH]c3cnccc32)c1NC(=O)c1cccnc1C", "endpoint": "cell viability", "recordedNumber": 103}
{"compound": "CCC(CCCC)COC(=O)C(\\C#N)=C(\\c1ccccc1)c2ccccc2 (configuration not stated)", "endpoint": "cell viability", "recordedNumber": 99.6}
{"compound": "CC(=O)N(C)C1(c2ccccc2)CCN(CCC[C@]2(c3ccc(Cl)c(Cl)c3)CCCN(C(=O)c3ccccc3)C2)CC1", "endpoint": "cell viability", "recordedNumber": 9.08}
{"compound": "CCCN[C@H]1CCc2nc(N)sc2C1", "endpoint": "cell viability", "recordedNumber": 99.8}
{"compound": "N#C/C(=C(/N)Sc1ccc(N)cc1)c1ccccc1C(F)(F)F", "endpoint": "cell viability", "recordedNumber": 82.3}
{"compound": "Cc1nc(-c2ccc(OCC(C)C)c(C#N)c2)sc1C(=O)O", "endpoint": "cell viability", "recordedNumber": 110}
{"compound": "CN(C)C/C=C/C(=O)Nc1ccc(C(=O)Nc2cccc(Nc3ncc(Cl)c(-c4c[nH]c5ccccc45)n3)c2)cc1", "endpoint": "cell viability", "recordedNumber": 3.77}
{"compound": "O=C(/C=C/c1ccc(/C=C/C(=O)Nc2ccc(C3=NCCN3)cc2)cc1)Nc1ccc(C2=NCCN2)cc1", "endpoint": "cell viability", "recordedNumber": 103}
{"compound": "Nc1nc(F)nc2c1ncn2[C@@H]1O[C@H](COP(=O)(O)O)[C@@H](O)[C@@H]1O", "endpoint": "cell viability", "recordedNumber": 16.6}
{"compound": "c1ccc(CNc2nc(NCc3ccccc3)c3ccccc3n2)cc1", "endpoint": "cell viability", "recordedNumber": 133}

----------
test system: P12-Ichikawa; experiment: cell viability relative to DMSO control; higher = less cytotoxic; conditions: RPMI 5 mM glucose + 10% FBS; 48 h; 15.4 µM
Form field: cell viability (one value per entry).

{"compound": "CCCCc1ccc2[nH]c(NC(=O)OC)nc2c1", "targetEntity": "P12-Ichikawa", "cell viability [%]": 22.2}
{"compound": "Cc1c(N)nc([C@H](CC(N)=O)NC[C@@H](N)C(N)=O)nc1C(=O)N[C@H](C(=O)N[C@@H](C)[C@H](O)[C@@H](C)C(=O)N[C@@H](C(=O)NCCc1nc(-c2nc(C(=O)NCCC[S+](C)C)cs2)cs1)[C@@H](C)O)C(O[C@H]1O[C@H](CO)[C@H](O)[C@@H](O)[C@H]1O[C@H]1O[C@H](CO)[C@@H](O)[C@H](OC(N)=O)[C@@H]1O)c1c[nH]cn1 (some centres undefined)", "targetEntity": "P12-Ichikawa", "cell viability [%]": 21.4}
{"compound": "CC1(C)SCCN([S+](=O)([O-])c2ccc(OCC#CCO)cc2)[C@H]1C(=O)NO", "targetEntity": "P12-Ichikawa", "cell viability [%]": 80.6}
{"compound": "C=CC(=O)Nc1cccc(Sc2nc(Nc3ccc(N4CCN(C)CC4)cc3)ncc2Cl)c1", "targetEntity": "P12-Ichikawa", "cell viability [%]": 117}

----------
system: SEM cells; experiment: AUC of viability dose-response curve (% viability x log10 dose units); higher = less sensitive; details: RPMI 5 mM glucose + 10% dialyzed FBS; 48 h
Form field: AUC of viability dose-response curve (one value per entry).

{"molecule": "Nc1nc(F)nc2c1ncn2[C@@H]1O[C@H](COP(=O)(O)O)[C@@H](O)[C@@H]1O", "AUC of viability dose-response curve": 352}
{"molecule": "CO[C@H]1CCC(O[C@H]2C[C@H]([C@]3(C)CC[C@]4(C[C@H](O)[C@@H](C)[C@@H]([C@@H](C)/C=C(\\C)C(=O)[C@H](C)C[C@H](C)C(=O)[O-])O4)O3)O[C@]3(O[C@@H]([C@H]4O[C@@](O)(CO)[C@H](C)C[C@@H]4C)C[C@@H]3C)[C@@H]2C)O[C@@H]1C (stereo not given in full)", "AUC of viability dose-response curve": 344}
{"molecule": "Oc1cc(-c2nc(-c3ccccc3)[nH]c2-c2ccncc2)ccc1Cl", "AUC of viability dose-response curve": 467}
{"molecule": "CC/C=C\\C[C@H]1C(=O)CC[C@@H]1CC(=O)OC", "AUC of viability dose-response curve": 461}
{"molecule": "COc1cc2nc(N3CCN(C(=O)C4COc5ccccc5O4)CC3)nc(N)c2cc1OC (stereo not given)", "AUC of viability dose-response curve": 447}

----------
test system: P12-Ichikawa; assay: cell viability relative to DMSO control; higher = less cytotoxic; conditions: HPLM + 10% dialyzed FBS; 48 h; 0.000781 µM
endpoint: cell viability

{"compound": "Cc1cc(Nc2cc(N3CCN(C)CC3)nc(/C=C/c3ccccc3)n2)n[nH]1", "endpoint": "cell viability", "result": "105%"}
{"compound": "CCNC(=O)CCC/C=C\\C[C@@H]1[C@@H](/C=C/C(O)CCc2ccccc2)[C@@H](O)C[C@@H]1O (stereo not given in full)", "endpoint": "cell viability", "result": "117%"}
{"compound": "Nc1n[nH]c2nnc(-c3c(-c4ccccc4)nn4ccccc34)cc12", "endpoint": "cell viability", "result": "104%"}
{"compound": "COc1cc(NCc2ccc3nc(N)nc(N)c3c2C)cc(OC)c1OC", "endpoint": "cell viability", "result": "88.8%"}
{"compound": "CCCOc1ccc(C(=O)OCCN(CC)CC)cc1N", "endpoint": "cell viability", "result": "106%"}
{"compound": "Cc1cc(Nc2ncc3c(n2)N(C)C(=O)N(c2cc(NC(=O)c4cccc(C(F)(F)F)c4)ccc2C)C3)n(C)n1", "endpoint": "cell viability", "result": "116%"}
{"compound": "C/C1=C2/[N]3[Co+]456([OH])<-[N]7=C1[C@@H](CCC(N)=O)C(C)(C)/C7=C/C1=[N]->4C(=C(/C)C4=[N]->5[C@@](C)([C@H]3[C@H](CC(N)=O)[C@@]2(C)CCC(=O)NC[C@@H](C)OP(=O)([O-])O[C@H]2[C@@H](O)[C@@H](n3c[n]->6c5cc(C)c(C)cc53)O[C@@H]2CO)[C@@](C)(CC(N)=O)[C@@H]4CCC(N)=O)/[C@@](C)(CC(N)=O)[C@@H]1CCC(N)=O", "endpoint": "cell viability", "result": "103%"}
{"compound": "O=C(O)CCCCCC(=O)NN=C1CCCC1", "endpoint": "cell viability", "result": "96.2%"}
{"compound": "N#C/C(=C(/N)Sc1ccc(N)cc1)c1ccccc1C(F)(F)F", "endpoint": "cell viability", "result": "123%"}
{"compound": "c1cc(-c2cnn3cc(-c4ccc(OCCN5CCCCC5)cc4)cnc23)ccn1", "endpoint": "cell viability", "result": "90.3%"}
{"compound": "NC1=NC(=O)N2CC12 (stereo not given)", "endpoint": "cell viability", "result": "91%"}
{"compound": "NCCCC(N)(C(=O)O)C(F)F (stereo not given)", "endpoint": "cell viability", "result": "116%"}
{"compound": "CC(=O)OC[C@@H]1O[C@H]([C@H](OC(C)=O)[C@@H]1OC(C)=O)N2\\C=C/C(=O)NC2=O", "endpoint": "cell viability", "result": "119%"}
{"compound": "C[C@]12CCC3c4ccc(O)cc4CCC3C1CCC2=O (stereo not given in full)", "endpoint": "cell viability", "result": "92%"}
{"compound": "COc1ccc(CCC(=O)c2c(O)cc(O[C@@H]3O[C@H](CO)[C@@H](O)[C@H](O)[C@H]3O[C@@H]3O[C@@H](C)[C@H](O)[C@@H](O)[C@H]3O)cc2O)cc1O", "endpoint": "cell viability", "result": "115%"}

----------
tested on: P12-Ichikawa; assay: cell viability relative to DMSO control; higher = less cytotoxic; conditions: HPLM + 10% dialyzed FBS; 48 h; 1.71 µM

{"compound": "CO[C@@H](C(=O)N1Cc2[nH]nc(NC(=O)c3ccc(N4CCN(C)CC4)cc3)c2C1)c1ccccc1", "targetEntity": "P12-Ichikawa", "cell viability / %": 20.3}
{"compound": "COc1cc2c(cc1OC)[C@@H]1Cc3ccc(OC)c(OC)c3CN1CC2", "targetEntity": "P12-Ichikawa", "cell viability / %": 106}
{"compound": "COc1cc2nc(N3CCN(C(=O)C4COc5ccccc5O4)CC3)nc(N)c2cc1OC (stereo not drawn)", "targetEntity": "P12-Ichikawa", "cell viability / %": 131}
{"compound": "CC(=O)SC[C@@H](C)C(=O)N1CCC[C@H]1C(=O)N[C@@H](Cc1ccccc1)C(=O)O", "targetEntity": "P12-Ichikawa", "cell viability / %": 104}
{"compound": "N#C/C(=C(/N)Sc1ccc(N)cc1)c1ccccc1C(F)(F)F", "targetEntity": "P12-Ichikawa", "cell viability / %": 103}
{"compound": "CCOC(=O)c1c(C)n(C)c2ccc(O)cc12", "targetEntity": "P12-Ichikawa", "cell viability / %": 123}
{"compound": "CNC[C@H](O)[C@@H](O)[C@H](O)[C@H](O)CO", "targetEntity": "P12-Ichikawa", "cell viability / %": 134}
{"compound": "CC(C)(N)c1ccc(-c2nc3ccccc3nc2-c2ccccc2)cc1", "targetEntity": "P12-Ichikawa", "cell viability / %": 5.6}
